Value source: the array DNA melting data of Ke et al.

- measurement_description: melting temperature; melt of duplexes
- conditions_used: sodium 0.0675 M; strand 1 µM
Please respond with reported Tm for every item in the list.
Give bare numbers, in °C.

CGACGTGCCAGATGTGCTG+CAGCACATTTCGCACGTCG ((((((((.(.((((((((+)))))))).).))))))))    49.6
CGACGTGCGCTATGTGCTG+CAGCACATATAGCACGTCG ((((((((..(((((((((+)))))))))..))))))))    53.8
CGACGTGCTAGATGTGCTG+CAGCACATAGGGCACGTCG ((((((((...((((((((+))))))))...))))))))    51.5
CGACGTGCTCGATGTGCTG+CAGCACATGTTGCACGTCG ((((((((...((((((((+))))))))...))))))))    49.5
CGACGTGCGTGATGTGCTG+CAGCACATTTGGCACGTCG ((((((((...((((((((+))))))))...))))))))    50.4
CGACGTGCGAGATGTGCTG+CAGCACATGTCGCACGTCG ((((((((((.((((((((+)))))))).))))))))))    60.6

Let us examine a further case.
So what does the record say about Tm for CGACGTGCCAGATGTGCTG+CAGCACATTAAGCACGTCG ((((((((...((((((((+))))))))...)))))))) ?
50.7
